This section presents compounds with their documented insulin secretion stimulation values.
Test: stimulators of insulin release from INS-1E, primary screen, cell-based, 5 mM glucose, NPC library (AID 1117329); also: reference of the scale not given here
Details: rat INS-1E insulin secretion, at 10 µM, stronger effect = higher value
recorded-metric: insulin secretion stimulation (%)

>>> readout_value("COC(=O)Nc1nc2ccc(C(=O)C3CC3)cc2[nH]1")
1.9
>>> readout_value("Cc1cc(O)cc2c1O[C@](C)(CCC[C@H](C)CCC[C@H](C)CCCC(C)C)CC2")
3.8
>>> readout_value("CC(C)(C)NCC(O)COc1cccc2c1C[C@H](O)[C@H](O)C2 (stereo partly drawn)")
-1.2
>>> readout_value("CCCCOC(=O)CCCCCCCCC(=O)OCCCC")
2.4
>>> readout_value("O=c1n(CCCN2CCN(c3cccc(Cl)c3)CC2)nc2ccccn12")
-0.1
>>> readout_value("CC(C=CC1=C(C)CCCC1(C)C)=CC=CC(C)=CC(=O)Oc1c(C)c(C)c2c(c1C)CC[C@@](C)(CCC[C@H](C)CCC[C@H](C)CCCC(C)C)O2")
2.9
>>> readout_value("O=Cc1ccc(O)c(O)c1O")
-1.7
>>> readout_value("N#C[C@H]1C[C@H]2C[C@@H]2N1C(=O)[C@@H](N)C12CC3CC(CC(O)(C3)C1)C2")
-2
>>> readout_value("CCN1/C(=C/C=C/c2sc3ccccc3[n+]2CC)Sc2ccccc21")
-0.5
>>> readout_value("O=C(Nc1ccc(Cl)cc1)Nc1ccc(Cl)c(C(F)(F)F)c1")
-0.8
>>> readout_value("CC(=O)Oc1ccc(C(=C2CCCCC2)c2ccc(OC(C)=O)cc2)cc1")
-0.3
>>> readout_value("C[C@H](CN1CCCC1)C(=O)c1ccc(C(F)(F)F)cc1")
8.3
>>> readout_value("CC[C@H](C)C(=O)O[C@H]1C[C@@H](C)C=C2C=C[C@H](C)[C@H](CC[C@@H]3C[C@@H](O)CC(=O)O3)[C@H]21")
6.6
>>> readout_value("C[N+]1(CC2COC(c3ccccc3)(C3CCCCC3)O2)CCCCC1 (stereo not drawn)")
5
>>> readout_value("CC(C)(C)C1CCC(CC2=C(O)c3ccccc3C(=O)C2=O)CC1 (stereo not drawn)")
-0.2
>>> readout_value("CCc1nc(N)nc(N)c1-c1ccc(Cl)cc1")
1.3
>>> readout_value("CCCc1ncc(C(=O)O)s1")
4.2
>>> readout_value("CC(C)=CCOc1ccc(/C=C/C(=O)c2ccc(OCC=C(C)C)cc2OCC(=O)O)cc1")
0.6
>>> readout_value("O=Cc1ccccc1C=O")
-0.6
>>> readout_value("CC(C)C(=O)OCc1cccc(OC(=O)[C@@H]2N3C(=O)[C@@H](NC(=O)Cc4ccccc4)[C@H]3SC2(C)C)c1")
2.2
>>> readout_value("CCN1CCN(c2cc(-c3ccc(F)cc3)c3c(n2)CCCCCC3)CC1")
1.9
>>> readout_value("CCN1C(=O)c2ccccc2C1Nc1ccc(OCCN2CCCCC2)cc1 (stereo not drawn)")
18.5
>>> readout_value("Cc1cc(CCCOc2c(C)cc(-c3noc(C(F)(F)F)n3)cc2C)on1")
-0.2
>>> readout_value("CCN1CCN(C(=O)N[C@@H](C(=O)N[C@@H]2C(=O)N3[C@@H]2SC(C)(C)[C@H]3C(=O)O)c2ccccc2)C(=O)C1=O")
-0.5
>>> readout_value("COC(=O)c1cc(Cl)ccc1NS(=O)(=O)C(F)(F)F")
1.8
>>> readout_value("O=S(=O)(O)CCS")
1.6
>>> readout_value("CN(C)CCOC(C)(c1ccccc1)c1ccccn1 (stereo not drawn)")
11.2
>>> readout_value("CN(C)[C@@H]1C(=O)C(C(=O)NCN2CCCC2)=C(O)[C@@]2(O)C(=O)C3=C(O)c4c(O)cccc4[C@@](C)(O)C3C[C@@H]12 (stereo partly drawn)")
2.3
>>> readout_value("O=C(O)c1cc(=O)c2c(OCC(O)COc3cccc4oc(C(=O)O)cc(=O)c34)cccc2o1")
1.6
>>> readout_value("CCc1cccc2c3c([nH]c12)C(CC)(CC(=O)O)OCC3 (stereo not drawn)")
-0.3
>>> readout_value("Cc1cc(CC(=O)O)c(C)n1-c1ccc(Cl)cc1")
2.3
>>> readout_value("COc1cccc2c1C(=O)c1c(O)c3c(c(O)c1C2=O)C[C@@](O)(C(=O)CO)C[C@@H]3O[C@H]1C[C@H](N)[C@H](O[C@@H]2CCCCO2)[C@H](C)O1")
0.2
>>> readout_value("O=C(O)c1cccnc1")
-1.6
>>> readout_value("OCCN1C[C@H](O)[C@@H](O)[C@H](O)[C@H]1CO")
5.4
>>> readout_value("O=C(O)Cc1ccc2c(c1)C(=O)c1ccccc1CO2")
0.2
>>> readout_value("CCCCCCCC/C=C/C(=O)O")
1.9
>>> readout_value("C/C=C/C(=O)N(CC)c1ccccc1C")
-0.4
>>> readout_value("CCC1(c2ccccc2)C(=O)NCNC1=O")
-2.2
>>> readout_value("CCCC(=O)O[C@]1(C(=O)CC)CC[C@H]2[C@@H]3CCC4=CC(=O)CC[C@]4(C)[C@H]3[C@@H](O)C[C@@]21C")
6.6
>>> readout_value("CCNC(=O)NCc1cccc(Cl)c1")
2.2
>>> readout_value("CC1(C)OC(=O)Nc2ccc(Br)cc21")
6.1
>>> readout_value("CNC(=O)CN(CCN(CCN(CC(=O)[O-])CC(=O)NC)CC(=O)[O-])CC(=O)[O-].O.[Gd+3]")
0.2
>>> readout_value("Cc1ccc(S(=O)(=O)NC(=O)NC2CCCCCCC2)cc1")
18.5

###

Assay: growth inhibition of GSK3B-pretreated HCT116 cells – cell-based, CellTiter-Glo, 0.2 to 20 µM (AID 1117336)
Conditions: HCT116 viability after GSK3B inhibitor, at 20 µM
Active and inactive are the calls of the source.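 Rule for the calls: active = compounds lowering colon cancer cell viability after pretreatment blocking the GSK3B kinase; inactive = the rest.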
Outcome codes: yes for active, no for inactive

>>> classification("Cc1ccc(O)c(-n2nc3ccccc3n2)c1")
"no"
>>> classification("CC(C)Cc1ccc(C(C)C(=O)O)cc1 (stereo not given)")
"no"
>>> classification("Nc1ccc([N+](=O)[O-])c(C(F)(F)F)c1")
"no"
>>> classification("N=C(N)c1ccc(OCCCOc2ccc(C(=N)N)cc2)cc1")
"no"
>>> classification("COc1ccc2cc(C=O)ccc2c1")
"no"
>>> classification("CCc1nc(N)nc(N)c1-c1ccc(Cl)cc1")
"no"
>>> classification("Oc1ccccc1")
"no"
>>> classification("CCN(CC)CCCC(C)Nc1ccnc2cc(Cl)ccc12 (stereo not given)")
"no"
>>> classification("CCCCC(CC)COC(=O)c1ccc(N(C)C)cc1 (stereo not given)")
"no"
>>> classification("COc1ccc2cc(CCC(C)=O)ccc2c1")
"no"
>>> classification("Cc1ccc(C(=O)Oc2ccc(C(O)CNC(C)(C)C)cc2OC(=O)c2ccc(C)cc2)cc1 (stereo not given)")
"yes"
>>> classification("CCOC(=O)N1CCC(=C2c3ccc(Cl)cc3CCc3cccnc32)CC1")
"yes"
>>> classification("O=C1CCC(=O)N1CO")
"no"
>>> classification("O=C(O)c1ccc(OCCCOc2ccc(C(=O)O)cc2)cc1")
"no"
>>> classification("O[C@@H](c1cc(C(F)(F)F)nc2c(C(F)(F)F)cccc12)[C@H]1CCCCN1")
"yes"
>>> classification("Nc1nnnn1-c1ccccc1")
"no"
>>> classification("O=[N+]([O-])c1ccc(/C=N\\O)o1")
"no"
>>> classification("CCN(CC)CC(=O)Nc1c(C)cccc1C")
"no"
>>> classification("CCNC(=O)NCc1cccc(Cl)c1")
"no"
>>> classification("OCCN(CCO)c1nc(N2CCCCC2)c2nc(N(CCO)CCO)nc(N3CCCCC3)c2n1")
"no"
>>> classification("COC1=C(OC)C(=O)C(CC=C(C)CCC=C(C)CCC=C(C)CCC=C(C)CCC=C(C)CCC=C(C)CCC=C(C)CCC=C(C)CCC=C(C)CCC=C(C)C)=C(C)C1=O")
"no"
>>> classification("C[C@H](CS)C(=O)N1CCC[C@H]1C(=O)O")
"no"
>>> classification("Fc1ccc([C@@H]2CCNC[C@H]2COc2ccc3c(c2)OCO3)cc1")
"no"
>>> classification("O=C1C(CCS(=O)c2ccccc2)C(=O)N(c2ccccc2)N1c1ccccc1 (stereo not given)")
"no"
>>> classification("COc1cc(OC)nc(O[C@H](C(=O)O)C(OC)(c2ccccc2)c2ccccc2)n1")
"no"

###

Test: HCT116 colon cancer cell growth inhibition, primary screen, CellTiter-Glo luminescence, NPC library (AID 1117342)
Conditions: at 20 µM (top of the series)
Criterion: inhibition of viability strictly under 30%. Met: Condition met. Not met: Condition not met.

>>> classification("Nc1ncnc2c1ncn2Cc1c(F)cccc1Cl")
"Condition met"
>>> classification("C[C@H]1C[C@H]2[C@@H]3CCC4=CC(=O)C=C[C@]4(C)[C@@]3(Cl)[C@@H](O)C[C@]2(C)[C@@]1(O)C(=O)CO")
"Condition met"
>>> classification("O=C(O)c1ccccn1")
"Condition met"
>>> classification("Cc1ccc(/C=N/n2c(-c3ccccc3)csc2=S)cc1")
"Condition met"
>>> classification("CC[C@@]1(O)C(=O)OCc2c1cc1n(c2=O)Cc2c-1nc1ccccc1c2/C=N/OC(C)(C)C")
"Condition not met"
>>> classification("COc1ccc(S(=O)(=O)N2c3ccc(Cl)cc3[C@@](O)(c3ccccc3Cl)[C@H]2C(=O)N2CCC[C@@H]2C(N)=O)cc1OC")
"Condition not met"
>>> classification("CC[C@H](C)C(=O)O[C@H]1C[C@@H](C)C=C2C=C[C@H](C)[C@H](CC[C@@H]3C[C@@H](O)CC(=O)O3)[C@H]21")
"Condition not met"
>>> classification("O=C1NC(c2ccccc2)(c2ccccc2)C(=O)N1COP(=O)(O)O")
"Condition met"
>>> classification("O=C(OCCN1CCOCC1)c1cccnc1Nc1cccc(C(F)(F)F)c1")
"Condition not met"
>>> classification("O=C1c2ccccc2CCc2ccccc21")
"Condition met"
>>> classification("O=C(O)c1c(O)c(-c2ccccc2)nc2ccccc12")
"Condition not met"
>>> classification("CC1c2ccccc2CN1NC(=O)c1ccc(Cl)c(S(N)(=O)=O)c1 (stereo unspecified)")
"Condition met"
>>> classification("CCCCCCCCCCCCCCCCCCN(C)C")
"Condition not met"
>>> classification("C[C@H]1O[C@@H](O[C@H]2CC[C@@]3(C)[C@H](CC[C@@H]4[C@@H]3C[C@@H](O)[C@]3(C)[C@@H](C5=CC(=O)OC5)CC[C@]43O)C2)C[C@H](O)[C@@H]1O[C@H]1C[C@H](O)[C@H](O[C@H]2C[C@H](O)[C@H](O[C@@H]3O[C@H](CO)[C@@H](O)[C@H](O)[C@H]3O)[C@@H](C)O2)[C@@H](C)O1")
"Condition not met"
>>> classification("CC(=O)[C@H]1CC[C@H]2[C@@H]3C[C@H](C)C4=CC(=O)CC[C@]4(C)[C@H]3[C@@H](O)C[C@]12C")
"Condition met"
>>> classification("CCC(=O)O")
"Condition met"
>>> classification("CCCCCCCCCCC(CO)CCCCCCCC (stereo unspecified)")
"Condition met"
>>> classification("O=C(O)c1ccccc1NCCc1ccccc1")
"Condition met"
>>> classification("CCc1cc2cc(OC)c(OC)cc2c(Cc2ccccc2)n1")
"Condition not met"
>>> classification("CC(=O)OC[C@H]1O[C@@H](OC(C)=O)[C@H](OC(C)=O)[C@@H]1OC(C)=O")
"Condition met"
>>> classification("CCCOc1ccc2c(c1)CC[C@@H]1[C@@H]2CC[C@]2(C)C(OC)CC[C@@H]12 (stereo partly specified)")
"Condition not met"
>>> classification("N[C@@H](Cc1cc(I)c(Oc2cc(I)c(O)c(I)c2)c(I)c1)C(=O)O")
"Condition not met"
>>> classification("Cc1cn([C@@H]2O[C@H](CO)[C@@H](O)[C@H]2F)c(=O)[nH]c1=O")
"Condition met"
>>> classification("CN=C(NC#N)NCCSCc1nc[nH]c1C")
"Condition met"
>>> classification("CC(C)C(=O)Nc1ccc([N+](=O)[O-])c(C(F)(F)F)c1")
"Condition met"
>>> classification("CCOc1ccccc1O[C@H](c1ccccc1)[C@H]1CNCCO1")
"Condition met"
>>> classification("O=[N+]([O-])c1ccc(/C=N\\O)o1")
"Condition met"
>>> classification("COc1ccc(Cl)cc1C(=O)NCCc1ccc(S(=O)(=O)NC(=O)NC2CCCCC2)cc1")
"Condition met"
>>> classification("NCC(=O)O")
"Condition met"
>>> classification("COc1cc2c(cc1OC)CN(C(=O)[C@H](C)N[C@@H](CCc1ccccc1)C(=O)O)[C@H](C(=O)O)C2")
"Condition met"
>>> classification("COC(=O)C1=C(C)NC(COC(N)=O)=C(C(=O)OC(C)C)C1c1cccc(Cl)c1Cl (stereo unspecified)")
"Condition not met"
>>> classification("CC1(C)O[C@@H]2[C@@H](CO[C@@]3(COS(N)(=O)=O)OC(C)(C)O[C@@H]23)O1")
"Condition met"
>>> classification("CC(C(O)c1ccccc1)N(C)CCOC(c1ccccc1)c1ccccc1 (stereo unspecified)")
"Condition not met"
>>> classification("O=C(Nc1ccc([N+](=O)[O-])cc1)Nc1ccc([N+](=O)[O-])cc1")
"Condition met"
>>> classification("O=C(O)[C@@H]1C(=CCO)O[C@@H]2CC(=O)N12")
"Condition met"
>>> classification("Oc1ccc(C(O)CNCCCCCCNCC(O)c2ccc(O)c(O)c2)cc1O (stereo unspecified)")
"Condition not met"
>>> classification("Cc1[nH]cnc1C[C@H]1CCc2c(C)c3ccccc3n2C1=O")
"Condition not met"
>>> classification("CC[N+](C)(C)c1cccc(O)c1")
"Condition met"
>>> classification("CCOC(=O)C1=C(C)NC(C)=C(C(=O)OC)C1c1cccc([N+](=O)[O-])c1 (stereo unspecified)")
"Condition not met"
>>> classification("CCOC(=O)[C@H](CCc1ccccc1)N[C@@H](C)C(=O)N(CC(=O)O)C1Cc2ccccc2C1")
"Condition met"
>>> classification("Cc1cccc(C)c1NC(=O)CN1CCCC1")
"Condition not met"

All figures here come from PubChem BioAssay.
